# Test system: Mannheimia haemolytica
# Assay method text: minimum inhibitory concentration (MIC)
# Settings: isolate (source animal id): 159
minimum inhibitory concentration for assorted compounds

Before answering, review these 3 worked examples.
Asked: I have this compound here, CN1C[C@@H]2C[C@H]1CN2c1cc2c(cc1F)c(=O)c(C(=O)O)cn2C1CC1 [Danofloxacin] , and I need its recorded minimum inhibitory concentration.
Given back: > 1 µg/mL

Asked: State the recorded minimum inhibitory concentration for this entry: NC[C@@H]1O[C@H](O[C@H]2[C@@H](O)[C@H](O[C@@H]3[C@@H](O)[C@H](N)C[C@H](N)[C@H]3O[C@H]3O[C@H](CN)[C@@H](O)[C@H](O)[C@H]3N)O[C@@H]2CO)[C@H](N)[C@@H](O)[C@@H]1O [Neomycin]
Given back: > 32 µg/mL

Asked: # minimum inhibitory concentration lookup, item CC1(C)S[C@@H]2[C@H](NC(=O)Cc3ccccc3)C(=O)N2[C@H]1C(=O)O [Penicillin]
Given back: > 8 µg/mL

---
Asked: I am curious: what minimum inhibitory concentration value has been reported for COc1cc(NS(=O)(=O)c2ccc(N)cc2)nc(OC)n1 [sulfadimethoxine] ?
Given back: > 256 µg/mL

Asked: Data request, read-out minimum inhibitory concentration, for CC[C@H]1OC(=O)C[C@@H](O)[C@H](C)[C@@H](O[C@@H]2O[C@H](C)[C@@H](O[C@H]3C[C@@](C)(O)[C@@H](O)[C@H](C)O3)[C@H](N(C)C)[C@H]2O)[C@@H](CC=O)C[C@@H](C)C(=O)/C=C/C(C)=C/[C@@H]1CO[C@@H]1O[C@H](C)[C@@H](O)[C@@H](OC)[C@H]1OC [Tylosin]
Given back: > 32 µg/mL

Asked: Name the recorded minimum inhibitory concentration for CS(=O)(=O)c1ccc([C@@H](O)[C@@H](CF)NC(=O)C(Cl)Cl)cc1 [Florfenicol] .
Given back: > 8 µg/mL

Asked: Requested field: minimum inhibitory concentration. Item: CN(C)[C@@H]1C(O)=C(C(N)=O)C(=O)[C@@]2(O)C(O)=C3C(=O)c4c(O)cccc4[C@@](C)(O)[C@H]3C[C@@H]12 [Tetracycline]
Given back: 4 µg/mL

Asked: What does the data say about its minimum inhibitory concentration? Entry: CCCN1C[C@H](C)[C@@H](O)[C@](C)(O)[C@@H](CC)OC(=O)[C@H](C)[C@@H](O[C@H]2C[C@@](C)(OC)[C@@H](O)[C@H](C)O2)[C@H](C)[C@@H](O[C@@H]2O[C@H](C)C[C@H](N(C)C)[C@H]2O)[C@](C)(O)C[C@H]1C [Gamithromycin]
Given back: > 8 µg/mL
